Origin of the recorded values: PubChem BioAssay (NCI)

# System: A549 NSCLC
# ASSAY_DETAILS: NCI tumour cell line growth inhibition, 48 h

>  <COMPOUND_SMILES>
CN(C)CCS(=O)(=O)Nc1cc(-c2ccc3ncnc(Nc4ccc(F)c(Cl)c4)c3c2)cnc1Cl

>  <GI50>
803 nM

$$$$
>  <COMPOUND_SMILES>
Oc1ccc(-c2[nH]c3ccccc3c2-c2nc3ccccc3o2)cc1

>  <GI50>
3150 nM

$$$$
>  <COMPOUND_SMILES>
Nc1ccn([C@@H]2S[C@H](CO)[C@@H](O)[C@@H]2F)c(=O)n1

>  <GI50>
161 nM

$$$$
>  <COMPOUND_SMILES>
COC(=O)C1=Nc2ccc(F)cc2/C1=C/c1sc(=S)[nH]c1O

>  <GI50>
254 nM

$$$$
>  <COMPOUND_SMILES>
CCOC(=O)c1cc2cc(OCc3ccccc3)ccc2[nH]1

>  <GI50>
> 100000 nM

$$$$
>  <COMPOUND_SMILES>
Cc1ccc(C(=O)N2C/C(=C/c3ccccc3)C(=O)/C(=C/c3ccccc3)C2)cc1

>  <GI50>
63300 nM

$$$$
>  <COMPOUND_SMILES>
O=S(=O)(NCCCNc1nccc(-c2c(-c3cccc(F)c3)nc3occn23)n1)c1cccc2ccccc12

>  <GI50>
6670 nM

$$$$
>  <COMPOUND_SMILES>
c1ccc2c(c1)[O][Sn][O]2

>  <GI50>
11 µg/mL

$$$$
>  <COMPOUND_SMILES>
COC(=O)c1ccc2c(c1)C(=O)c1c-2n(CCCCl)c(=O)c2cc(OC)c(OC)cc12

>  <GI50>
> 100000 nM

$$$$
>  <COMPOUND_SMILES>
Cc1n(Cc2ccc3ccccc3n2)cc[n+]1Cc1ccc2ccccc2c1

>  <GI50>
1340 nM

$$$$
